Hey, just so you know, these numbers are from patent US8658646B2.

target: recombinant human SYK360-635 (Homo sapiens, UniProt P43405); construct: made in house; assay: Determination of IC50 of Spleen Tyrosine Kinase (SYK) inhibition, 33P ATP filtration assay; type: biochemical; conditions: SYK aa 360-635 0.5 nM; ATP 20 μM, peptide 5 μM, 0.1% BSA; read-out: SYK_ENZYME_FILTRATION/v1, BSA
Counter-ions that a name gives are not always drawn.
property_measured: IC50 (nM)

INPUT: Given the compound CC(C)(C)NC(=O)c1c[nH]c2ncc(-c3n[nH]c4cc(F)ccc34)nc12 , write its reported IC50.
OUTPUT: 95.4

I: C[C@@H](NC(=O)c1c[nH]c2ncc(-c3nn(C)c4cc(F)ccc34)nc12)C(C)(C)F
II: CC(C)(CO)NC(=O)c1c[nH]c2ncc(-n3ncc4cc(Cl)ccc43)nc12
INPUT: Lab notebook, comparison: I versus II , higher IC50 goes to which? Write down the label attached to your selection.
OUTPUT: II

a: CC(C)NC(=O)c1c[nH]c2ncc(-c3nn(C)c4ccc(OC(F)(F)F)cc34)nc12
b: CC(C)(CO)NC(=O)c1c[nH]c2ncc(-c3n[nH]c4cc(Cl)ccc34)nc12
c: Cc1ccc2c(-c3cnc4[nH]cc(C(=O)NC5(C#N)CC5)c4n3)nn(C)c2c1
d: COC[C@H](C)NC(=O)c1c[nH]c2ncc(-c3ncn4cc(F)cc(F)c34)nc12
e: CC(CC(C)(C)O)NC(=O)c1c[nH]c2ncc(-c3nn(C)c4cc(F)ccc34)nc12 (stereo not drawn)
INPUT: Put the compounds in ascending order of IC50. Put the labels in the order asked and list them.
OUTPUT: b, c, a, e, d

a: CN(C)CCCn1nc(-c2cnc3[nH]cc(C(=O)NC4(C)CC4)c3n2)c2cc(OC(F)F)ccc21 [Example I-452, trifluoroacetate]
b: Cn1nc(-c2cnc3[nH]cc(C(=O)NC4CCCC(NC(=O)OC(C)(C)C)C4)c3n2)c2ccc(Cl)cc21 (stereo not drawn)
c: C[C@@H](NC(=O)c1c[nH]c2ncc(-c3nn(C)c4c(F)c(F)ccc34)nc12)C(=O)N1CC(C#N)C1
d: CC(C)(C)NC(=O)c1c[nH]c2ncc(-n3ncc4cc(F)c(F)cc43)nc12
e: COC[C@H](C)NC(=O)c1c[nH]c2ncc(-c3nn(Cc4ccc(N5CCOCC5)nc4)c4cc(F)ccc34)nc12
INPUT: Arrange by IC50, high to low. Put the labels in the order asked and list them.
OUTPUT: b, d, c, e, a

1: COC[C@@H](NC(=O)c1c[nH]c2ncc(-c3nn(C)c4cc(F)ccc34)nc12)[C@@H](C)O
2: CC(NC(=O)c1c[nH]c2ncc(-c3nn(C)c4cc(Cl)ccc34)nc12)c1nccn1C (stereo not drawn)
INPUT: Lab notebook, comparison: 1 versus 2 , higher IC50 goes to which? Write down the label attached to your selection.
OUTPUT: 1

====

target: JAK3: Recombinant human kinase domain (Homo sapiens, UniProt P52333); construct: JAK3: Recombinant human kinase domain from Millipore (Cat #14-629) or prepared; test: Determination of IC50 of Janus Kinase (JAK) inhibition, radioactive end-point 33P-ATP assay, JAK3; details: ATP 1.5 uM, peptide 50 uM, 20 minutes, read-out: JAK3-INHIB-DR/v1~NO ADDITIVE~Enzyme_Conc = 100
Sequence (P52333 822-1111 limits assumed): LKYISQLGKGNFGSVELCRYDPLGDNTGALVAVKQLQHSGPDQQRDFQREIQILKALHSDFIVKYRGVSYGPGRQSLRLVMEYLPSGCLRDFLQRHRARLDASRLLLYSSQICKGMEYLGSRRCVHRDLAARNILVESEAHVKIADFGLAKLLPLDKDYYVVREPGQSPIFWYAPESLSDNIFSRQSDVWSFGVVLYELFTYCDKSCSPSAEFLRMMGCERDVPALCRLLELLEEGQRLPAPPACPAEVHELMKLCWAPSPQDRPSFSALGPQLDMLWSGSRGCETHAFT
property_measured: IC50 (nM)

Some molecules with recorded IC50:
INPUT: Given the molecule C[C@@H](NC(=O)c1c[nH]c2ncc(-c3nn(C)c4cc(F)ccc34)nc12)c1ccc(Br)cc1 , write its reported IC50.
OUTPUT: 13

INPUT: Given the molecule CC[C@@H](C)NC(=O)c1c[nH]c2ncc(-c3nn(C)c4cc(F)ccc34)nc12 , write its reported IC50.
OUTPUT: 3.89

INPUT: Given the molecule Cn1nc(-c2cnc3[nH]cc(C(=O)NC(CO)C4CCCO4)c3n2)c2ccc(F)cc21 (centres unmarked) , write its reported IC50.
OUTPUT: 141

INPUT: Given the molecule COC[C@H](C)NC(=O)c1c[nH]c2ncc(-c3nn(CCN4CCCC4)c4cc(F)ccc34)nc12 , write its reported IC50.
OUTPUT: 2.1

1: CC(NC(=O)c1c[nH]c2ncc(-c3nn(CCN4CCOCC4)c4cc(F)ccc34)nc12)c1ccncc1 (centres unmarked)
2: Cn1nc(-c2cnc3[nH]cc(C(=O)NC(C)(C)C#N)c3n2)c2ccc(F)cc21
3: COC[C@H](C)NC(=O)c1c[nH]c2ncc(-c3nn(CCN(C)C)c4cc(F)ccc34)nc12
4: CC(NC(=O)c1c[nH]c2ncc(-c3nn(C)c4cc(F)ccc34)nc12)c1cocn1 (centres unmarked)
INPUT: Put the molecules in ascending order of IC50. Put the labels in the order asked and list them.
OUTPUT: 3, 2, 4, 1
(3: 1.83 nM, 2: 5.4 nM, 4: 8.87 nM, 1: 53.5 nM)
